This collection of values is drawn from patent US12227500B2.

Overview of reported remaining activity at 0.1 µM across a group of molecules:
biological target: panel of 60 human kinases (Homo sapiens); construct: purchased Reaction Biology Corp; experiment: Radiolabeled ATP kinase assay, panel of 60 kinases (Table S5); format: biochemical; conditions: GSK3a; 0.1 μM; 10 μM ATP; read-out: % Enzyme Activity (relative to DSMO controls)
Sequence (P49840 whole entry): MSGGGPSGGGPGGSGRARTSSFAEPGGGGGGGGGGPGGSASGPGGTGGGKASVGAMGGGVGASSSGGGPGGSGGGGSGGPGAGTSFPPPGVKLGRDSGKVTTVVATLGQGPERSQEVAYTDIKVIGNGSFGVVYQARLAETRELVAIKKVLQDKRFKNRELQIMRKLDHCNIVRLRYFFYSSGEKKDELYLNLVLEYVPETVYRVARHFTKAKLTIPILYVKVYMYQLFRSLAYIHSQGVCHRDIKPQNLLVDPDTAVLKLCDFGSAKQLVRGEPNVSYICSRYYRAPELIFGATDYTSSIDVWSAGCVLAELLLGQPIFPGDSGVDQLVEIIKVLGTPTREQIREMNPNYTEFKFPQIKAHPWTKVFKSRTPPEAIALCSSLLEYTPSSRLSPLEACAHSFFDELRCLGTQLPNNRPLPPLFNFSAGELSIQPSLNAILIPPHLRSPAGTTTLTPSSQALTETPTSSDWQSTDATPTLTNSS
Report as a plain number; the unit % is understood.

CN1CCN(Cc2ccc(-c3cnc4[nH]cc(-c5cccc(Cl)c5)c4c3)cc2)CC1 [Compound 7ad]: 97.1
Cc1nn(C)c(C)c1-c1c[nH]c2ncc(-c3ccc(CN4CCN(C)CC4)cc3)cc12 [Compound 7ai]: 84.7
CN1CCN(Cc2ccc(-c3cnc4[nH]cc(-c5ccc6c(c5)OCCO6)c4c3)cc2)CC1 [Compound 7d]: 13.6
CN1CCN(Cc2ccc(-c3cnc4[nH]cc(-c5ccccc5Cl)c4c3)cc2)CC1 [Compound 7as]: 96
CN1CCN(Cc2ccc(-c3cnc4[nH]cc(-c5cnn(Cc6ccccc6)c5)c4c3)cc2)CC1 [Compound 7ah]: 32.5
COc1ccccc1-c1c[nH]c2ncc(-c3ccc(CN4CCN(C)CC4)cc3)cc12 [Compound 7at]: 82.8
CN1CCN(Cc2ccc(-c3cnc4[nH]cc(-c5ccc6[nH]ccc6c5)c4c3)cc2)CC1 [Compound 1, reference compound]: 90.8
CN1CCN(Cc2ccc(-c3cnc4[nH]cc(-c5ccoc5)c4c3)cc2)CC1 [Compound 7w]: 75.3

// switching to the query molecule
Query block: Returns the measured remaining activity at 0.1 µM for the input molecule. Input: CN1CCN(Cc2ccc(-c3cnc4[nH]cc(-c5ccncc5)c4c3)cc2)CC1 [Compound 7n]
Result block: 75.3
